assay: Lipophilicity, logD of the compound in 1-octanol/PBS buffer at pH 7.4 by HPLC/UV analysis; type: physicochemical; conditions: 1-octanol/PBS buffer, read-out: logD
ASSAY_READOUT: logD

[[record]]
smiles_input = "CCCNNC(=O)c1ccc(CN(CC(=O)NCc2ccccc2)C(=O)c2ccc(N(C)C)cc2)cc1"
assay_readout = "logD"
data_value = 3.76


----------
target: Histone deacetylase 1 (Homo sapiens); assay: Inhibition of FLAG tagged full length human HDAC1 expressed in HEK293T cells using acyl-H3K9 peptide as substrate preincubated with compound for 20 mins followed by substrate addition and measured after 120 mins by HPLC analysis
Sequence (Q13547 whole entry): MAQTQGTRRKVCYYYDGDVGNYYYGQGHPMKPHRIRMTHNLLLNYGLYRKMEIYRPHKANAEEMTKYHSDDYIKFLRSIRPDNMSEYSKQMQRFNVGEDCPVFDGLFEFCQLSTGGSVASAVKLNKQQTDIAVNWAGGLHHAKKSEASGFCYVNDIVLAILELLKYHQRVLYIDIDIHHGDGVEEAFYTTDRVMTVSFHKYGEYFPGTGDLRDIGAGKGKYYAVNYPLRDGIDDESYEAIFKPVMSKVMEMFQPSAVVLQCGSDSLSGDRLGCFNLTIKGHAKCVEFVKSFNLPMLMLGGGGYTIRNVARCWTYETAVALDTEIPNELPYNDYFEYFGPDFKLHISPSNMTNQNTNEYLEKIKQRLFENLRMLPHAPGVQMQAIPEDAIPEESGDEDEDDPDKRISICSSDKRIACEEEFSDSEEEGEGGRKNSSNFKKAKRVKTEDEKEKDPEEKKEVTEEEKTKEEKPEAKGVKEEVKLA
ASSAY_READOUT: IC50

[[record]]
smiles_input = "CCCCCCCCCCCCCCCCNNC(=O)c1cccs1"
data_value = "> 100 µM"

